As shown below, each of these binders has a reported pIC50 value.
biological target: human α4β7 integrin on cells (human) (UniProt P13612); test: RPMI8866 adhesion to MAdCAM-1
pIC50: −log10 of the molar value. Bridge positions count the residues as written; N and C are the ends. Square brackets hold non-standard residues; d marks the D form. Bip = N[C@@H](Cc1ccc(-c2ccccc2)cc1)C(=O)O; 1Nal = N[C@@H](Cc1cccc2ccccc12)C(=O)O; 2Nal = N[C@@H](Cc1ccc2ccccc2c1)C(=O)O; d2Nal = N[C@H](Cc1ccc2ccccc2c1)C(=O)O; NMeR = CN[C@@H](CCCNC(=N)N)C(=O)O; β3hE = N[C@@H](CCC(=O)O)CC(=O)O; NMeK = CN[C@@H](CCCCN)C(=O)O; Pen = CC(C)(S)[C@H](N)C(=O)O; dNMeK = CN[C@H](CCCCN)C(=O)O

BINDER | pIC50
Ac-[Pen][NMeR]SDTL[Pen][Bip][β3hE][dK]-NH2 (disulfide 1-7 (inferred); also: homodimer via DIG) [SEQ ID NO: 135] | > 8.00

Quick check: pIC50 of Ac-[Pen][NMeR]SDTL[Pen][1Nal][β3hE][NMeK]-NH2 (disulfide 1-7 (inferred); also: dimer via DIG linker) [SEQ ID NO: 142] ? > 8.00

Input Ac-[Pen][NMeR]SDTL[Pen][1Nal][dE][dK]-NH2 (disulfide 1-7; also: dimer via DIG) [SEQ ID NO: 32] < 8.00

Input Ac-[Pen][NMeR]SDTL[Pen][d2Nal]E[dK]-NH2 (disulfide 1-7; also: dimer via DIG) [SEQ ID NO: 35] < 7.00

Input Ac-[Pen][NMeR]SDTL[Pen][Bip][dE][dK]-NH2 (disulfide 1-7; also: dimer via DIG, attachment site not given here) [SEQ ID NO: 108] < 8.00

Input Ac-[Pen][NMeR]SDTL[Pen][2Nal]E[dNMeK]-NH2 (disulfide 1-7; also: dimer via DIG) [SEQ ID NO: 41] > 8.00

Input Ac-[Pen][NMeR]SDTL[Pen][2Nal][dE][dNMeK]-NH2 (disulfide 1-7 (inferred)) [SEQ ID NO: 13] < 7.00

Input Ac-[Pen][NMeR]SDTL[Pen][2Nal][dR][dK]-NH2 (disulfide 1-7 (inferred); also: homodimer via DIG) [SEQ ID NO: 120] < 6.00

Input Ac-[Pen][NMeR]SDTL[Pen][Bip]E[dK]-NH2 (disulfide 1-7 (inferred); also: homodimer via DIG) [SEQ ID NO: 134] > 8.00
